Ref: a melting point compilation (Tetko et al.)

Entries and their melting point

# example entries with known answers
compound	melting point
COc1ccc(NC(=O)OC(C)(C)C)c(N)c1	116 to 118 °C
CC(=O)NC12CC3CC(C1)CC(C(=O)O)(C3)C2	258 to 260 °C
O=C(O)c1ccc(S)cc1Cl	184 to 186 °C
O=C(O)C1SCCc2sccc21 (stereo not drawn)	148 to 150 °C
Fc1cccc(Nc2nnc(S)s2)c1	206 to 208 °C
O=C(Nc1ccc(O)cc1)c1ccsc1	207 to 209 °C
Cc1c[nH]c(=O)n1-c1ccccc1[N+](=O)[O-]	209 to 211 °C
CC1(c2cccc([N+](=O)[O-])c2)NC(=O)NC1=O (stereo not drawn)	178 to 180 °C
NS(=O)(=O)Cc1cc(Cl)ccc1F	186 to 188 °C
NC(=O)NC(=O)CCCCl	179 to 181 °C

Reported melting point for O=C(O)C1CCN(S(=O)(=O)c2ccc(Br)s2)CC1 was 166 to 168 °C

Reported melting point for COC(=O)C(N)c1ccc2ccccc2c1 (stereo not drawn) was 56 to 58 °C

* * *

Entries and their melting point

Reported melting point for O=C(O)Cc1cccc(OCCCOc2ccccc2)c1 was 78 to 80 °C

Reported melting point for COC(=O)C1CSCC(c2ccccc2)N1 (stereo not drawn) was 96 to 98 °C

Reported melting point for COCC(=O)Nc1ccc(O)cc1 was 139 to 141 °C

* * *

Entries and their melting point

molecule	melting point
NNC(=O)Cc1cc(=O)[nH]c(S)n1	242 to 244 °C
CC(C)C1CCNC(=O)CC1 (stereo not drawn)	76 to 78 °C
O=C(O)c1scnc1C1CC1	204 to 206 °C

Reported melting point for CCOc1ccc(Oc2ccc(S(=O)(=O)Cl)cc2)cc1 was 88 to 90 °C

Reported melting point for CC(CS(C)(=O)=O)C(=O)O (stereo not drawn) was 125 to 127 °C

Reported melting point for O=C1NCCC=C1Cl was 76 to 78 °C

Reported melting point for COc1cccc(C(=O)c2c[nH]c3ncccc23)c1 was 139 to 141 °C

Reported melting point for Cc1ccc(C(=O)C(Cl)c2ccc(C)cc2)cc1 (stereo not drawn) was 67 to 69 °C

Reported melting point for O=C(O)c1cccc(N2CCCC2=O)c1 was 195 to 208 °C

Reported melting point for O=C(O)c1cnn(Cc2ccccc2)c1 was 149 to 151 °C

Reported melting point for O=C(O)C1CC1c1ccc(Br)cc1 (stereo not drawn) was 122 to 124 °C

Reported melting point for O=S(=O)(Cl)c1ccc(OCc2ccccc2)cc1 was 95 to 97 °C

Reported melting point for COc1ccc(C(C)CC(=O)O)cc1 (stereo not drawn) was 66 to 68 °C

Reported melting point for O=C(CO)N1CCc2ccccc21 was 147 to 149 °C

Reported melting point for O=C(O)C=Cc1ccc(OC(F)F)cc1 was 182 to 184 °C

Reported melting point for O=C(O)c1ccc2[nH]c(-c3ccc(Cl)cc3)nc2c1 was 319 to 321 °C

* * *

Entries and their melting point

# example entries with known answers
compound	melting point
CC1C=CC2C(=O)N(C)C(=O)C2C1C(=O)O (stereo not drawn)	172 to 174 °C
CC(C)N1CCCC(Br)C1=O (stereo not drawn)	52 to 54 °C
Sc1nc2ccccc2n1CCc1ccccc1	177 to 179 °C
C=CCNC(=O)CC#N	65 to 67 °C

Reported melting point for Nc1ccc2c[nH]nc2c1 was 204 to 206 °C

Reported melting point for Nc1cccc(CS(N)(=O)=O)c1 was 144 to 146 °C

Reported melting point for O=C(O)C1(Cc2nc3ccccc3s2)CCCC1 was 155 to 157 °C

Reported melting point for COc1ccccc1NS(=O)(=O)c1cc(N)ccc1N1CCCC1 was 159 to 161 °C

Reported melting point for N#Cc1cccnc1Oc1ccc(N)cc1 was 152 to 154 °C

Reported melting point for COC(=O)c1ccc(NS(=O)(=O)c2ccc(C)cc2)cc1 was 150 to 152 °C
